Data provenance: patent US20250171549A1

# assay.system: human CCR8 (human, UniProt P51685 1-355)
# Sequence (P51685 whole entry): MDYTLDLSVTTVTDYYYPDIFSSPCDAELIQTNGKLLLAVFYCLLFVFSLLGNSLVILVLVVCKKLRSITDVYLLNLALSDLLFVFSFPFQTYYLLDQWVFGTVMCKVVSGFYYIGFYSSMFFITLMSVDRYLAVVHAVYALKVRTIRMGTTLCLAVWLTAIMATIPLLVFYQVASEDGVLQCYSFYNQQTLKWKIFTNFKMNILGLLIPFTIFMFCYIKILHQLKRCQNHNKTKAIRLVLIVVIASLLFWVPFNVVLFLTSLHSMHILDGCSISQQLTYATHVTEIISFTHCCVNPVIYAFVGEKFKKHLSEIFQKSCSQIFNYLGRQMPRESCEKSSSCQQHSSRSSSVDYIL
# assay.comment: cell-based or functional assay
Would you please tag the item fulfilled when its ADCC, Percent Non-Viable cells (EC50 pM), Donor 4 is 4 pM or above, and not fulfilled when it is below?

>>> class("Antibody 5.3 IgG1 (VH: A71S_D72R, VL: S57Y_E58L_V67S_F103V)_huIgG1z mAb (antibody, V domains shown) VH: QVQLVESGGGVVQPGRSLRLSCAASGFTFSSYGMHWVRQAPGKGLEWVAVISYDGSNKYYSRSVKGRFTISRDNSKNTLYLQMNSLRAEDTAVYYCARGRYFDWFLFDYWGQGTLVTVSS VL: DTVMTQTPLSLSVTPGQPASISCKSSQSLLHSDGKTYLFWYLQKPGQPPQLLIYLSSNRFSGVPDRFSGSGSGTDFTLKISRVEAEDVGVYYCMQSLRLPLTFGGGTKVEIKR")
"not fulfilled"
>>> class("Antibody 5.4 IgG1 (VH: G40A, VL: S57Y_E58L_V67T_F103V)_huIgG1z mAb (antibody, V domains shown) VH: QVQLVESGGGVVQPGRSLRLSCAASGFTFSSYAMHWVRQAPGKGLEWVAVISYDGSNKYYADSVKGRFTISRDNSKNTLYLQMNSLRAEDTAVYYCARGRYFDWFLFDYWGQGTLVTVSS VL: DTVMTQTPLSLSVTPGQPASISCKSSQSLLHSDGKTYLFWYLQKPGQPPQLLIYLTSNRFSGVPDRFSGSGSGTDFTLKISRVEAEDVGVYYCMQSLRLPLTFGGGTKVEIKR")
"not fulfilled"
>>> class("Antibody 5.1 IgG1 (VH: F134T, VL: S34R_S57Y_F103V)_huIgG1z mAb (antibody, V domains shown) VH: QVQLVESGGGVVQPGRSLRLSCAASGFTFSSYGMHWVRQAPGKGLEWVAVISYDGSNKYYADSVKGRFTISRDNSKNTLYLQMNSLRAEDTAVYYCARGRYFDWTLFDYWGQGTLVTVSS VL: DTVMTQTPLSLSVTPGQPASISCKSSQSLLHRDGKTYLFWYLQKPGQPPQLLIYEVSNRFSGVPDRFSGSGSGTDFTLKISRVEAEDVGVYYCMQSLRLPLTFGGGTKVEIKR")
"not fulfilled"
>>> class("Antibody 5.5 IgG1 (VH: G40P_M41V, VL: S57Y_E58L_V67T_F103V)_huIgG1z mAb (antibody, V domains shown) VH: QVQLVESGGGVVQPGRSLRLSCAASGFTFSSYPVHWVRQAPGKGLEWVAVISYDGSNKYYADSVKGRFTISRDNSKNTLYLQMNSLRAEDTAVYYCARGRYFDWFLFDYWGQGTLVTVSS VL: DTVMTQTPLSLSVTPGQPASISCKSSQSLLHSDGKTYLFWYLQKPGQPPQLLIYLTSNRFSGVPDRFSGSGSGTDFTLKISRVEAEDVGVYYCMQSLRLPLTFGGGTKVEIKR")
"fulfilled"
>>> class("Antibody 6.1 IgG1 (VH: S67R_A114S_I134P, VL: F71L)_huIgG1z mAb (antibody, V domains shown) VH: QVQLVESGGGVVQPGRSLRLSCEASGFTFSSYVMHWVRQAPGKGLEWVSVISYDGSRQYYTDSVKGRFTISRDNSKNTLNLQMNSLRAEDTAVYYCVRGRLATSPLFDYWGQGTLVTVSS VL: DILMTQTPLSLSVTPGQPASISCKSSQSLLYSDGKTYLFWYLQRPGQPPQLLIYEVSNRLSGVPDRFSGSGSGTDFTLKISRVEAEDVGIYYCMQSIKLPLTFGGGTKVEIKR")
"fulfilled"
>>> class("Antibody 6.2 IgG1 (VH: S67R_Q68A_L135K_F136L, VL: S109T_I110L)_huIgG1z mAb (antibody, V domains shown) VH: QVQLVESGGGVVQPGRSLRLSCEASGFTFSSYVMHWVRQAPGKGLEWVSVISYDGSRAYYTDSVKGRFTISRDNSKNTLNLQMNSLRAEDTAVYYCVRGRLATAIKLDYWGQGTLVTVSS VL: DILMTQTPLSLSVTPGQPASISCKSSQSLLYSDGKTYLFWYLQRPGQPPQLLIYEVSNRFSGVPDRFSGSGSGTDFTLKISRVEAEDVGIYYCMQTLKLPLTFGGGTKVEIKR")
"fulfilled"
